# System: HL-60(TB) leukemia
# assay remarks: NCI-60 one-dose screen, 48 h (100 = growth as untreated, 0 = no growth, -100 = all killed)
# protocol conditions: 10 µM unless noted
About 83,000 compounds went through this panel and 20% of them were active in at least one assay; those are over-represented in the sample as a whole.
Field: growth. Provide a value for each of the molecules that follow.
Hi! Could you send only the number? It should be in %, unit omitted.

Q: Specify reported growth for the molecule shown: COCCOC(C)C(/C=N/NC(N)=S)=N/NC(N)=S (stereo unspecified)
Result: 81.6

Q: Specify reported growth for the molecule shown: CCOC(=O)c1cc2c(n1C)-c1nc(NC(C)=O)sc1CCC2
Result: 102

Q: Specify reported growth for the molecule shown: Nc1nc(N)c2c(n1)NC(c1ccc3c(c1)OCO3)CC(c1cccc(Nc3ccncc3)c1)=N2 (stereo unspecified)
Result: 57

Q: Specify reported growth for the molecule shown: CN(C)CC(O)c1ccc2cc(Br)c3ccccc3c2c1 (stereo unspecified)
Result: 43.7

Q: Specify reported growth for the molecule shown: COc1ccc(-c2nc3ccc(C)cc3c3c2c(=O)n(C)c(=O)n3C)cc1OC
Result: 98.1

Q: Specify reported growth for the molecule shown: O=C1Nc2ccccc2/C1=C/c1nc2ccccc2c(=O)[nH]1
Result: 102

Q: Specify reported growth for the molecule shown: O=C(O)C(O)C(O)C(=O)O.[NH-]C1CCCCC1[NH-].[Pt+2] (stereo unspecified)
Result: 104

Q: Specify reported growth for the molecule shown: Cc1ccc(NSc2ccccc2[N+](=O)[O-])cc1
Result: -6.97

Q: Specify reported growth for the molecule shown: CCOC(=O)N1CCN(S(=O)(=O)c2oc(-c3ccc(Cl)cc3)nc2C#N)CC1
Result: 56.4

Q: Specify reported growth for the molecule shown: CN(C)CCOC(=O)Nc1ccc(Cl)cc1
Result: 100

Q: Specify reported growth for the molecule shown: O=C(Cc1ccc([N+](=O)[O-])cc1)Oc1ccccc1
Result: 105

----------
# Tested on: MDA-MB-435 melanoma
# assay remarks: NCI-60 one-dose screen, 48 h (100 = growth as untreated, 0 = no growth, -100 = all killed)
# protocol conditions: 10 µM unless noted
About 83,000 compounds went through this panel and 20% of them were active in at least one assay; those are over-represented in the sample as a whole.
metric name: growth (%)
Hi! Could you send only the number? It should be in %, unit omitted.

Q: Specify reported growth for the compound shown: CCCCOC(=O)c1ccccc1C(=O)O.CCCCOC(=O)c1ccccc1C(=O)O.[Cu+2]
Result: 105

Q: Specify reported growth for the compound shown: O=C(CC1(O)C(=O)Nc2ccc(F)cc21)c1ccc(C(=O)NCC2CCC3(CC2)OOC2(CCCCC2)OO3)cc1 (stereo unspecified)
Result: 63.8

Q: Specify reported growth for the compound shown: CC(=O)[O][Hg][c]1ccccc1
Result: -89.2

Q: Specify reported growth for the compound shown: COc1ccc(CN2CCN(Cc3ccccc3)CC2)c(O)c1
Result: 103

Q: Specify reported growth for the compound shown: O=C(N/N=C/c1ccc(N(CCCl)CCCl)cc1)c1cc(=O)[nH]c(=O)[nH]1
Result: 116

Q: Specify reported growth for the compound shown: COc1ccc(C(c2ccc(OC)cc2)C(Cl)(Cl)Cl)cc1
Result: 72.4

----------
# Test system: HL-60(TB) leukemia
# assay remarks: NCI-60 one-dose screen, 48 h
# protocol conditions: 10 µM unless noted
# Procedure: Growth inhibition of the HL-60(TB) human tumor cell line is measured as a screen for anti-cancer activity. Cells are grown in 96 well plates and exposed to the test compound for 48 hours. Compounds are tested at a single concentration, which is 10^-5 M for most compounds. The reported endpoint is percent growth (GI% or GIPRCNT), where numbers from 0 - 100% represent growth inhibition, and numbers from -100% - 0 represent cell death. For example, a value of 40 represents 60% growth inhibition. […]
About 83,000 compounds went through this panel and 20% of them were active in at least one assay; those are over-represented in the sample as a whole. Activity calls are given as the source filed them. The calls were made as follows: active = growth percent below 10; inactive = the rest.
Select the correct class. Options are active, inactive and nothing else.

Q: Could you check what this test reported for OCCNc1nc(NCCO)nc(Nc2ccc(C3=NN(c4cc(Cl)cc(Cl)c4)C(c4ccccc4)C3)cc2)n1 (stereo not given) ?
Result: inactive

Q: Could you check what this test reported for O=C(NCCc1c[nH]c2ccccc12)C1Cc2ccccc2CN1C(=O)c1ccco1 (stereo not given) ?
Result: inactive

Q: Could you check what this test reported for COc1ccc(CCN2C(=O)CCSC2=S)cc1 ?
Result: inactive

Q: Could you check what this test reported for COc1ccc2c(c1)OC1=C(C(=O)OC1)C2c1cc(OC)c(OC)c(OC)c1 (stereo not given) ?
Result: active

Q: Could you check what this test reported for O=c1cc(CSc2nnc(-c3ccc(F)cc3)o2)c2ccc3ccccc3c2o1 ?
Result: inactive

----------
# Tested on: NCI-H460 lung
# assay remarks: NCI-60 one-dose screen, 48 h (100 = growth as untreated, 0 = no growth, -100 = all killed)
# protocol conditions: 10 µM unless noted
About 83,000 compounds went through this panel and 20% of them were active in at least one assay; those are over-represented in the sample as a whole.
metric name: growth (%)
Hi! Could you send only the number? It should be in %, unit omitted.

Q: Specify reported growth for the compound shown: OC1(c2ccc(Cl)cc2Cl)c2ccccc2C2=NCCN21 (stereo unspecified)
Result: 105

Q: Specify reported growth for the compound shown: C#CC1(O)CCC2(C)C(CCC3C4CCC(=O)C4(C)CCC32)C1 (stereo unspecified)
Result: 102

Q: Specify reported growth for the compound shown: O=C(CI)Nc1ccc(Br)cc1
Result: 95.3

Q: Specify reported growth for the compound shown: CCOC(=O)/C=C(\C)Nc1ccc(N/C(C)=C/C(=O)OCC)c2c1Oc1ccccc1O2
Result: 122

Q: Specify reported growth for the compound shown: C=CC(O)CN1CC1CC (stereo unspecified)
Result: 100

Q: Specify reported growth for the compound shown: Cc1cc(NC(=O)CCc2ccc(N3C(N)=NC(N)=NC3(C)C)cc2)ccc1S(=O)(=O)F
Result: 12.3

----------
# Tested on: NCI-H460 lung
# assay remarks: NCI-60 one-dose screen, 48 h
# protocol conditions: 10 µM unless noted
Compounds without any hit were thinned out: in the full panel of roughly 83,000, 20% have a hit. Activity calls are given as the source filed them. How the source made its calls: active means growth percent below 10; inactive means the rest.
Select the correct class. Options are y for active, n for inactive and nothing else.

Q: Could you check what this test reported for CCCCCCCCCCOc1ccc(C(=O)Oc2ccc(CSP3(=O)OCC4OC(n5ccc(=O)[nH]c5=O)C(F)C4OP(=O)(O)OCC4OC(n5cnc6c(N)ncnc65)C(F)C4O3)cc2)cc1 (configuration not stated) ?
Result: n

Q: Could you check what this test reported for Clc1ccc(SSC(Cl)(Cl)Cl)cc1 ?
Result: n

Q: Could you check what this test reported for NC(=O)C(Br)CBr (configuration not stated) ?
Result: y

Q: Could you check what this test reported for CC(=O)Oc1ccc(Cl)cc1 ?
Result: n

Q: Could you check what this test reported for Oc1c(Br)cc(Br)cc1Br.[Cu+2] ?
Result: n

Q: Could you check what this test reported for Nc1ccc(N)c2c1Oc1ccccc1O2 ?
Result: n

Q: Could you check what this test reported for C=CCC1(CC)C(=O)NC(=S)NC1=O ?
Result: n

Q: Could you check what this test reported for CC1=C(SCCC(=O)OCC(=O)NCCC[Te]c2ccccc2)C(=O)c2ccccc2C1=O ?
Result: y

Q: Could you check what this test reported for COc1ccc(C2SCC(=O)Nc3c2c(C)nn3-c2nc3ccc(C)cc3s2)cc1O (configuration not stated) ?
Result: n

Q: Could you check what this test reported for O=c1cc[nH]c(=O)o1 ?
Result: n

Q: Could you check what this test reported for O=[N+]([O-])c1ccc(/C=C/C=C/c2ccc(S(=O)(=O)F)cc2)c(Cl)c1 ?
Result: n

Q: Could you check what this test reported for COC(=O)C[Se]C(=O)c1ccccc1OC(C)=O ?
Result: n

----------
# Tested on: HL-60(TB) leukemia
# assay remarks: NCI-60 one-dose screen, 48 h
# protocol conditions: 10 µM unless noted
About 83,000 compounds went through this panel and 20% of them were active in at least one assay; those are over-represented in the sample as a whole. Active and inactive are the calls of the source. How the source made its calls: active means growth percent below 10; inactive means the rest.
Select the correct class. Options are active, inactive and nothing else.

Q: Could you check what this test reported for CCN(CC)CCO/N=C1\CC(c2ccc(OC)c(OC)c2)Oc2ccccc21 (stereo not given) ?
Result: inactive

Q: Could you check what this test reported for CC(=O)Oc1ccc(Cl)cc1 ?
Result: inactive

Q: Could you check what this test reported for C=CN(C(=O)N1CCN(c2cc3c(cc2F)c(=O)c(C(=O)O)cn3C2CC2)CC1)c1nc(-c2ccc(Cl)cc2)cs1 ?
Result: inactive

Q: Could you check what this test reported for COc1ccccc1NC(=O)C1CC(c2ccc(F)cc2)=NO1 (stereo not given) ?
Result: inactive

Q: Could you check what this test reported for O=C(NOC(=O)c1ccccc1)c1ccccc1 ?
Result: inactive

Q: Could you check what this test reported for CN1C[C@@H](c2ccc(Cl)cc2)[C@]2(NC(=S)N(c3ccccc3)C2=O)[C@@]12C(=O)NC1C=CC(Br)=C[C@H]12 (stereo not given in full) ?
Result: inactive

Q: Could you check what this test reported for CSc1nc(Nc2cccc(NC(=O)CCl)c2)c(C#N)c(-c2cccc([N+](=O)[O-])c2)n1 ?
Result: inactive

Q: Could you check what this test reported for O=C(Nc1ccccc1C(F)(F)F)C1=NCCCCN1 ?
Result: inactive

Q: Could you check what this test reported for CCc1ccc(CCC(=O)Nc2ncc(Cc3ccccc3)s2)o1 ?
Result: active

Q: Could you check what this test reported for CCc1c2c(nc3ccc(OCc4ccc(B5OC(C)(C)C(C)(C)O5)cc4)cc13)-c1cc3c(c(=O)n1C2)COC(=O)[C@]3(O)CC ?
Result: active
